Experiment Notes: self-splicing fitness, log relative to wild type (ln ratio); higher = more splicing; Tetrahymena group I intron in knt gene, E. coli kanamycin selection, DiMSum; sequences stand for … in CUCUCU…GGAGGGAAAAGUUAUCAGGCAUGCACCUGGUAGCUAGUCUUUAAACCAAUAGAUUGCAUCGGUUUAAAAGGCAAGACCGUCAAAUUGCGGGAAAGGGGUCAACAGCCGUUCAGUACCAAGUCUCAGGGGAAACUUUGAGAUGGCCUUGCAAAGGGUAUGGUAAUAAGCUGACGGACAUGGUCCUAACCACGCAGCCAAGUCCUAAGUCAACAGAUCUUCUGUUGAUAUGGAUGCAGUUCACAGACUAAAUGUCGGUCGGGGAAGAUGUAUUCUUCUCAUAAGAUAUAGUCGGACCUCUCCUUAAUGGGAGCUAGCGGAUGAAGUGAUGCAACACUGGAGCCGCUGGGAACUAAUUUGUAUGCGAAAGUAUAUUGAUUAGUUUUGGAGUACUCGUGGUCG;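 further: selection with 25 µg/mL kanamycin versus none on LB agar overnight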
Recorded Conditions: 37 °C
Readout Name: self-splicing fitness (ln)
Returns: the value as a bare number; no unit string appended.

Here is how some sequences turned out for self-splicing fitness (ln).
[
  {
    "Seq String": "CUAAAGCAAUAUUACGCUUA",
    "self-splicing fitness (ln)": -2.75
  },
  {
    "Seq String": "GGAUAGCAAUAUUACGAGUG",
    "self-splicing fitness (ln)": -1.41
  },
  {
    "Seq String": "UAAUAGCAAUAUUACGACAA",
    "self-splicing fitness (ln)": -1.01
  }
]

// lookup self-splicing fitness (ln) for UUUAAGCAAUAUUACGGCAG
0.179

###

Experiment Notes: self-splicing fitness, log relative to wild type (ln ratio); higher = more splicing; Tetrahymena group I intron in knt gene, E. coli kanamycin selection, DiMSum; sequences stand for … in CUCUCU…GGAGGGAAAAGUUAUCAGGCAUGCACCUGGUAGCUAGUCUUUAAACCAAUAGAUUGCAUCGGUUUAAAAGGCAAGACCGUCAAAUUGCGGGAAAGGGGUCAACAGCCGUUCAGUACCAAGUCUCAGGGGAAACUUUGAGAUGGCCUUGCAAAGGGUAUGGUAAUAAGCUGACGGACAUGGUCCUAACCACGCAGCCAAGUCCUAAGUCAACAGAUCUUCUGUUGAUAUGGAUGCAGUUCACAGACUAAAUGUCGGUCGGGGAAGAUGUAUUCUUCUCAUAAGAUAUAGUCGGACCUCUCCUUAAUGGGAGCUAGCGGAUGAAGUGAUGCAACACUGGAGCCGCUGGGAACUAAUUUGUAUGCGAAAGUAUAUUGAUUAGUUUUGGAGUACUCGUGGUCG
Recorded Conditions: 30 °C
Readout Name: self-splicing fitness (ln)

[
  {
    "Seq String": "AUUGAGCAAUAUUACGGUUC",
    "self-splicing fitness (ln)": -3.69
  },
  {
    "Seq String": "CAGUAGCAAUAUUACGUGAC",
    "self-splicing fitness (ln)": -4.5
  }
]

// returns reported self-splicing fitness (ln) for input UCGAAGCAAUAUUACGUAGG
-1.42

Same again, this time with UUCCAGCAAUAUUACGCAAA
-1.42

Would you kindly repeat that for UCCGAGCAAUAUUACGCAUA ?
-2.24

Same thing, different sequence: CGUAAGCAAUAUUACGUUAA
-3.03

###

Experiment Notes: self-splicing fitness, log relative to wild type (ln ratio); higher = more splicing; Tetrahymena group I intron in knt gene, E. coli kanamycin selection, DiMSum; sequences stand for … in CUCUCU…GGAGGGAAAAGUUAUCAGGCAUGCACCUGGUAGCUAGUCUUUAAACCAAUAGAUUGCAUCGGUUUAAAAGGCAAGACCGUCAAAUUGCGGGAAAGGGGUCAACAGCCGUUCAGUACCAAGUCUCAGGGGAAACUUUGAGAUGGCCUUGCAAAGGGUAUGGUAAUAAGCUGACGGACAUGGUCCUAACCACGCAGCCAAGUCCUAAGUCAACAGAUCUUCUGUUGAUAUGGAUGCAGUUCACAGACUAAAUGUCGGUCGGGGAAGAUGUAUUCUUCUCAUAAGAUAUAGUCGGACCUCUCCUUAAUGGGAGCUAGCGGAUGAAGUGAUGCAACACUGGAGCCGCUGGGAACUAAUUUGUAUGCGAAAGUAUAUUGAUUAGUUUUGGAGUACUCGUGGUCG
Recorded Conditions: 30 °C
self-splicing fitness (ln) vs -1: at or above is fulfilled, below is not fulfilled.

[
  {
    "Seq String": "CAGUAGCAAUAUUACGAUCA",
    "Label Class": "not fulfilled"
  }
]

Please tell me: is the sequence GGUCAGCAAUAUUACGGAAA at or over -1 in terms of self-splicing fitness (ln)?
not fulfilled

Entry to check: CUCUAGCAAUAUUACGAGUG
not fulfilled

Same question for GUCGAGCAAUAUUACGUAUG please.
not fulfilled

Same question, GAGAAGCAAUAUUACGUUUC this time
not fulfilled

Moving on to the next sequence: UAAUAGCAAUAUUACGUGCA
not fulfilled

Follow-up entry: UCACAGCAAUAUUACGGGAA
not fulfilled

Entry to check: UUACAGCAAUAUUACGCAAG
not fulfilled

Again, but for AACGAGCAAUAUUACGAAUG
not fulfilled

###

Experiment Notes: self-splicing fitness, log relative to wild type (ln ratio); higher = more splicing; Tetrahymena group I intron in knt gene, E. coli kanamycin selection, DiMSum; sequences stand for … in CUCUCU…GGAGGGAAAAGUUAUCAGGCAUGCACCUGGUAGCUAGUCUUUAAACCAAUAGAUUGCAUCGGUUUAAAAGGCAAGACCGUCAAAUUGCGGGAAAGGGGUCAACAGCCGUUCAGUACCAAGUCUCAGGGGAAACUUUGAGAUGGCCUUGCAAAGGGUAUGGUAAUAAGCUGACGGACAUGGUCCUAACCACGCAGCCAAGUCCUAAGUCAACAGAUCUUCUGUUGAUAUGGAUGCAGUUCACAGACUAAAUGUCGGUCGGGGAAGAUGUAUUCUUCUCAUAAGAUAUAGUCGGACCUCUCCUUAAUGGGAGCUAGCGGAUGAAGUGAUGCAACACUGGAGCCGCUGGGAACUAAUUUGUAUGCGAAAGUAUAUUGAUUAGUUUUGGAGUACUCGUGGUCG
Recorded Conditions: 30 °C
Catalogue of self-splicing fitness (ln) values
Write no unit; give the number alone.

Example entries begin here.
[
  {
    "Seq String": "UUGCAGCAAUAUUACGGUGC",
    "Readout Name": "self-splicing fitness (ln)",
    "Reading": -3.79
  },
  {
    "Seq String": "GGAAAGCAAUAUUACGAUCA",
    "Readout Name": "self-splicing fitness (ln)",
    "Reading": 0.0514
  },
  {
    "Seq String": "ACAGAGCAAUAUUACGGGUA",
    "Readout Name": "self-splicing fitness (ln)",
    "Reading": -2.47
  },
  {
    "Seq String": "ACUAAGCAAUAUUACGAAAU",
    "Readout Name": "self-splicing fitness (ln)",
    "Reading": -2.67
  },
  {
    "Seq String": "CAUAAGCAAUAUUACGGCUU",
    "Readout Name": "self-splicing fitness (ln)",
    "Reading": -2.75
  },
  {
    "Seq String": "GAGUAGCAAUAUUACGGACG",
    "Readout Name": "self-splicing fitness (ln)",
    "Reading": -3.14
  },
  {
    "Seq String": "UAAUAGCAAUAUUACGCCCA",
    "Readout Name": "self-splicing fitness (ln)",
    "Reading": -1.36
  },
  {
    "Seq String": "UUAAAGCAAUAUUACGGGAA",
    "Readout Name": "self-splicing fitness (ln)",
    "Reading": -0.821
  },
  {
    "Seq String": "AUAAAGCAAUAUUACGCUAC",
    "Readout Name": "self-splicing fitness (ln)",
    "Reading": -3.14
  },
  {
    "Seq String": "GUAGAGCAAUAUUACGGUGU",
    "Readout Name": "self-splicing fitness (ln)",
    "Reading": -1.82
  }
]

Recorded self-splicing fitness (ln) for CGGAAGCAAUAUUACGGCGG , please?
-0.184

Ok, now GUCAAGCAAUAUUACGGCUU
-4.12

Can you handle UCUGAGCAAUAUUACGUAGG next?
-0.323

Here is the next sequence: CGAUAGCAAUAUUACGCUUU
-3.56

Would you mind doing AGACAGCAAUAUUACGCCUU as well?
-2.75

Item: CAAAAGCAAUAUUACGAUAA
-2.29

###

Experiment Notes: self-splicing fitness, log relative to wild type (ln ratio); higher = more splicing; Tetrahymena group I intron in knt gene, E. coli kanamycin selection, DiMSum; sequences stand for … in CUCUCU…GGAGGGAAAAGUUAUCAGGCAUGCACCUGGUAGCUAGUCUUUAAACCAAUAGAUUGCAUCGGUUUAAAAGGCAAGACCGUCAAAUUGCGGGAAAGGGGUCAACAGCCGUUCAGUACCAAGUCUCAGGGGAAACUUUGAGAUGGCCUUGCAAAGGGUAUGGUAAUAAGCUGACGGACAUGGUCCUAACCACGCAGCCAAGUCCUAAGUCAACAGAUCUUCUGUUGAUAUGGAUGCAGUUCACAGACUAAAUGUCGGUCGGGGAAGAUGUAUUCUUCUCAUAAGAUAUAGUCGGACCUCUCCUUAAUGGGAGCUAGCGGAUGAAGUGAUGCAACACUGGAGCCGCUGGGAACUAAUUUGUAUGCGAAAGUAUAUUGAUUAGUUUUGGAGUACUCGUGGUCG
Recorded Conditions: 37 °C
Rule: Met for self-splicing fitness (ln) not less than -0.6, Not met for anything less.

Observe how each entry below is paired with its result.
[
  {
    "Seq String": "UUCAAGCAAUAUUACGGCAA",
    "Label Class": "Met"
  },
  {
    "Seq String": "CAACAGCAAUAUUACGGAGG",
    "Label Class": "Met"
  },
  {
    "Seq String": "ACGGAGCAAUAUUACGCGAU",
    "Label Class": "Not met"
  },
  {
    "Seq String": "CCAAAGCAAUAUUACGGUUG",
    "Label Class": "Not met"
  },
  {
    "Seq String": "CAAUAGCAAUAUUACGGUCC",
    "Label Class": "Not met"
  }
]

Is the recorded value of self-splicing fitness (ln) equal to or greater than -0.6 for this sequence? CCGAAGCAAUAUUACGAGCG
Met

Try the sequence AAGUAGCAAUAUUACGCUAU
Not met

Also check GCUAAGCAAUAUUACGAGCG
Met

Origin of measurements: the supplement of paper PMC7877785
